Target: Histamine H3 receptor (Homo sapiens)
Assay: Binding affinity for human histamine H3 receptor
pKi: −log10 of the molar value.
Classification by pKi follows these ranges: 1 (below 7), 2 (7 to below 8), 3 (8 or more)

Hello team, could you let me know which band the following compound falls into: Cc1cc(-c2cn3ccccc3n2)ccc1OCCCN1CCCCC1 2

Class (by measured pKi) for Cc1ccn2cc(-c3ccc(OCCCN4CCCC4)cc3)nc2c1 3

Which of the defined bands does the recorded pKi of Cc1cccn2cc(-c3ccc(OCCCN4CCCCC4)cc3)nc12 sit within? 3

The entry to classify is Cc1cccn2cc(-c3ccc(OCCCn4ccnc4)cc3)nc12 ; which class holds it? 1

Looking at Cc1cccn2cc(-c3ccc(NC(=O)CCN4CCCCC4)cc3)nc12 , which class would you pick? 1

Pick a category. Item: Cc1cccn2cc(-c3ccc(OCCCN(C(C)c4ccccc4)C(C)c4ccccc4)cc3)nc12 (stereo unspecified) 1

====

Test: Oral bioavailability in rat
Type: ADME, organism-based
Details: in vivo, read-out: Bioavailabiility
MEASURED_METRIC: bioavailability (%)
Express it in %; write the number only.

Answer with the recorded bioavailability for the compound listed here: Cc1ccn2cc(-c3ccc(OCCCN4CCCCC4)cc3)nc2c1 57

====

Target: Histamine H3 receptor (Homo sapiens)
Experiment: Compound was tested for its binding affinity against human histamine H3 receptor
MEASURED_METRIC: Ki (µM)
Numbers only here, please. The scale is µM.

Answer with reported Ki of CCCCN(CCCC)CCCOc1ccc(-c2cn3cccc(C)c3n2)cc1 4

====

Molecular target: Histamine H3 receptor (Homo sapiens)
Assay: Binding affinity for human histamine H3 receptor
pKi: −log10 of the molar value.
Each record gets a class by pKi: I (below 6), II (6 to below 8), III (8 or more)

Field: class (pKi) — entry: Cc1ccn2cc(-c3ccc(/C=C/CCN4CCCCC4)cc3)nc2c1 II

GET /class?item= CCCN(CCC)CCCOc1ccc(-c2cn3cccc(C)c3n2)cc1 II

Which pKi category applies to CCCCN(CCCC)CCCOc1ccc(-c2cn3cccc([N+](=O)[O-])c3n2)cc1 here? I

In plain terms, what class is Cc1ccn2cc(-c3ccc(OCCCN4CCCCC4)cc3C)nc2c1 ? III

Classify this compound: Cc1cccn2cc(-c3ccc(NS(=O)(=O)CCCN4CCCCC4)cc3)nc12 II

====

Provide the recorded Ki for the entries that follow.
Biological target: Histamine H3 receptor (Homo sapiens, UniProt Q9Y5N1)
Sequence (Q9Y5N1 whole entry): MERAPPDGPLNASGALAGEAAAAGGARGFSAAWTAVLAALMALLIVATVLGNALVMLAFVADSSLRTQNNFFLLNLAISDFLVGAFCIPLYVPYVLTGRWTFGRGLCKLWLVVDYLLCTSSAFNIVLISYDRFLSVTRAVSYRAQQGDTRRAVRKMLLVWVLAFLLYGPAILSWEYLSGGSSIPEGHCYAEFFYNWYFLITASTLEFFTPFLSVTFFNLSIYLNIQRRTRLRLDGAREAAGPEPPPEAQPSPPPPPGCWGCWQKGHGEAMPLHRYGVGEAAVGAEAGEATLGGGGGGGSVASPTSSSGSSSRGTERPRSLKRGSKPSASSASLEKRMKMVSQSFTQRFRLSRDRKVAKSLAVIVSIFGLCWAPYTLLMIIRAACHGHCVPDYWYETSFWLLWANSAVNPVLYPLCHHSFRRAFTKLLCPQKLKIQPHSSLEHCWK
Experiment: Binding affinity for human histamine H3 receptor
Just the number in nM, nothing appended.

Identify measured Ki associated with Cc1cccn2cc(-c3ccc(NCCCN4CCCCC4)cc3)nc12 15

Supply reported Ki belonging to this molecule: COc1cc(-c2cn3ccc(C)cc3n2)ccc1OCCCN1CCCCC1 69

Identify Ki associated with the molecule c1ccn2cc(-c3ccc(OCCCN4CCCCC4)cc3)nc2c1 6

Give a short answer stating reported Ki for Cc1cccn2cc(-c3ccc(OCCCN4CCOCC4)cc3)nc12 . 80

Supply reported Ki belonging to this molecule: Cc1ccn2cc(-c3ccc(C#CCCN4CCCCC4)cc3)nc2c1 7

====

Target: Histamine H3 receptor (Homo sapiens, UniProt Q9Y5N1)
Experiment: Binding affinity for human histamine H3 receptor
For each entry below, report its pKi value.
pKi here is simply -log10 of the concentration when that concentration is written in mol/L.

Hello, please tell me recorded pKi for this one: Cc1ccn2cc(-c3ccc(CCCCN4CCCCC4)cc3)nc2c1 7.77

In one line, give reported pKi of the entry CCCCN(CCCC)CCCOc1ccc(-c2nc3c(C)cccn3c2C)cc1 . 6.06

// Input: Cc1ccn2cc(-c3ccc(OCCCN4CCCCCC4)cc3)nc2c1 . Output its pKi only. 8.22

Give the reported value of pKi for this record: Cc1cccn2cc(-c3ccc(OCCCN(C)C)cc3)nc12 7.89
